Entries and their CC50
Test: Cytotoxicity against African green monkey Vero cells assessed as reduction in cell viability by MTT assay
Format: cell-based
Details: chlorocebus sabaeus
All answers are understood in µM, so give the number only.

- test smiles: "O=c1[nH]cc(C#Cc2ccccc2)c(=O)[nH]1"
  readout unit: "µM"
  CC50: 254
- test smiles: "CC#Cc1c[nH]c(=O)[nH]c1=O"
  readout unit: "µM"
  CC50: 262
- test smiles: "CCCCCCC#Cc1cn([C@@H]2O[C@H](CO)[C@@H](O)[C@H]2O)c(=O)[nH]c1=O"
  readout unit: "µM"
  CC50: 111
- test smiles: "O=c1[nH]cc(C#CC2CCCCC2)c(=O)[nH]1"
  readout unit: "µM"
  CC50: 247

Attention now turns to another entry.
-- ask // returns reported CC50 for input "C[Si](C)(C)C#Cc1c[nH]c(=O)[nH]c1=O"
-- reply 270
